- Target Under Test: T1, human beta-Klotho (human, UniProt Q86Z14 1-1044)
- T1 sequence (looked up): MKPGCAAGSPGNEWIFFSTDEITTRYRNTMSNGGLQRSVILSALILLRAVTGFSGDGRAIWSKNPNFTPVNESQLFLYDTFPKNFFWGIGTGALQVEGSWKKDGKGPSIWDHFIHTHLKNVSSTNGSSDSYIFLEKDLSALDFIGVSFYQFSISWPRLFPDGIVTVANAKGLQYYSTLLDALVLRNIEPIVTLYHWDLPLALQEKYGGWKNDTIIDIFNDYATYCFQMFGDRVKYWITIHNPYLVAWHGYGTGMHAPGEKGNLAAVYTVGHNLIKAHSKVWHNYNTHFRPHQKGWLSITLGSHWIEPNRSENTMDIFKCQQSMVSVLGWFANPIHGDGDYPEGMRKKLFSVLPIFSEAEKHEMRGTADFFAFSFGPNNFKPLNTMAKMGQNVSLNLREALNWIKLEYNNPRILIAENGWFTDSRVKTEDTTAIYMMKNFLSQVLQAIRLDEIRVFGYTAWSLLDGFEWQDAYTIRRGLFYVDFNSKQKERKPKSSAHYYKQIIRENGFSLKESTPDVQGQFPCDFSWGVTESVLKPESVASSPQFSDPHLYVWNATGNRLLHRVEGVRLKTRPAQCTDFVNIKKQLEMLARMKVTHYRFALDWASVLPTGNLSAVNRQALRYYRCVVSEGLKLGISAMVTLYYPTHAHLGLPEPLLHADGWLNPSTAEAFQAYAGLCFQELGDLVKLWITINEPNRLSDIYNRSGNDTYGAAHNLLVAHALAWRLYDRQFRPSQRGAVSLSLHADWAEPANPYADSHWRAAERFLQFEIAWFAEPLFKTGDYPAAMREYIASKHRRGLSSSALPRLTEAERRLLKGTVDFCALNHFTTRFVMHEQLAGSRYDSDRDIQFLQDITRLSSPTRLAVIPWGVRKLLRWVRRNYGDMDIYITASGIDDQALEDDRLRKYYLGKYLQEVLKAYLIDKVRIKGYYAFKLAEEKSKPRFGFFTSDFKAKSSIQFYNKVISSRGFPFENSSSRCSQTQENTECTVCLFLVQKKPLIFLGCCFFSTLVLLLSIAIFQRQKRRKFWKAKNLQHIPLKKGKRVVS
- Method Description: cell-based or functional assay
Reported Metric: FGF21 activity (EC50, nM); p-ERK levels
Please provide the amount together with its unit, number first.

// lookup FGF21 activity (EC50, nM); p-ERK levels for Compound 71 (ligand, Moiety B (HOOC-(CH2)20-CO-gGlu-2XADO-EDA-CO-CH2) on 52C and 282C of fusion polypeptide) HGEGTFTSDVSSYLEEQAAKEFIAWLVKGGGGAQPGAQPGAQPGAQPGAQPCQAPGAQPGAQPGAQPGAQPGAQPGAQPGAQPGAQPGAQPGAQPGAQPGAQPGAQPGAQPHPIPDSSPLLQFGGQVRQRYLYTDDAQQTEAHLEIREDGTVGGAADQSPESLLQLKALKPGVIQILGVKTSRFLCQRPDGALYGSLHFDPEACSFRELLLEDGYNVYQSEAHGLPLHLPGQKSPHRDPAPRGPARFLPLPGLPPALPEPPGILAPQPPDVGSSDPLSLVGCSQGRSPSYES
2.7 nM

# get_value(readout='FGF21 activity (EC50, nM); p-ERK levels', item= Compound 72 (ligand, Moiety B (HOOC-(CH2)20-CO-gGlu-2XADO-EDA-CO-CH2) on 62C and 282C of fusion polypeptide) HGEGTFTSDVSSYLEEQAAKEFIAWLVKGGGGAQPGAQPGAQPGAQPGAQPGAQPGAQPGQCPGAQPGAQPGAQPGAQPGAQPGAQPGAQPGAQPGAQPGAQPGAQPGAQPHPIPDSSPLLQFGGQVRQRYLYTDDAQQTEAHLEIREDGTVGGAADQSPESLLQLKALKPGVIQILGVKTSRFLCQRPDGALYGSLHFDPEACSFRELLLEDGYNVYQSEAHGLPLHLPGQKSPHRDPAPRGPARFLPLPGLPPALPEPPGILAPQPPDVGSSDPLSLVGCSQGRSPSYES )
2.4 nM

Given the binder Compound 10 (ligand, Moiety A (HOOC-(CH2)16-CO-gGlu-2XADO) on 222K of fusion polypeptide) HGEGTFTSDVSSYLEEQAAREFIAWLVRGGGGGGGSGGGGSGGGGSGGGGSHPIPDSSPLLQFGGQVRQRYLYTDDAQQTEAHLEIREDGTVGGAADQSPESLLQLRALRPGVIQILGVRTSRFLCQRPDGALYGSLHFDPEACSFRELLLEDGYNVYQSEAHGLPLHLPGQRSPHRDPAPRGPARFLPLPGLPPALPEPPGILAPQPPDVGSSDPLSLVGKSQGRSPSYES , what is its reported FGF21 activity (EC50, nM); p-ERK levels?
4.5 nM

Item Compound 40 (ligand, Moiety A (HOOC-(CH2)16-CO-gGlu-2XADO) on 111K and 282K of fusion polypeptide) HGEGTFTSDVSSYLEEQAAREFIAWLVRGGGGAQPGAQPGAQPGAQPGAQPGAQPGAQPGAQPGAQPGAQPGAQPGAQPGAQPGAQPGAQPGAQPGAQPGAQPGAQPGAQKHPIPDSSPLLQFGGQVRQRYLYTDDAQQTEAHLEIREDGTVGGAADQSPESLLQLRALRPGVIQILGVRTSRFLCQRPDGALYGSLHFDPEACSFRELLLEDGYNVYQSEAHGLPLHLPGQRSPHRDPAPRGPARFLPLPGLPPALPEPPGILAPQPPDVGSSDPLSLVGKSQGRSPSYES has what recorded FGF21 activity (EC50, nM); p-ERK levels?
8 nM
